Experimental Target: Bombyx mori EcR (VBE) (Bombyx mori, UniProt P49881)
Assay Protocol: Z3 assay: β-galactosidase reporter gene induction in HEK-293 clone Z3 (CVBE / 6XEcRE LacZ)
Kindly state pEC50 for each of the entries shown.
Answers are plain numbers, as −log10 of the molar value.

// solved cases for pEC50 follow
[Q] Can you share its pEC50? I mean this molecule: "CCc1c(OC)cccc1C(=O)NN1C(c2cc(C)cc(C)c2)=NOC1(C)C"
[A] 5.40

[Q] Can you share its pEC50? I mean this molecule: CCc1c(OC)cccc1C(=O)NN1C(c2cc(C)cc(C)c2)=NOC1(C)CC (centres unmarked)
[A] 5.77

Count: 4. Required value per item: pEC50.
1. CCc1c(OC)cccc1C(=O)NN1C(c2ccccc2)=NOC1(C)CC (centres unmarked)
2. CCC1(C)ON=C(c2cc(C)cc(C)c2)N1NC(=O)c1cc2ccccc2s1 (centres unmarked)
3. CCc1c(OC)cccc1C(=O)NN1C(c2cc(C)cc(C)c2)=NOC12CCCC2
4. CCc1ccc(C(=O)NN2C(c3ccccc3)=NOC23CCCC3)cc1

[A]
1. 4.91
2. 5.67
3. 5.80
4. 5.00

---

Experimental Target: GAL4 DBD-CfEcR(DEF)/VP16AD-MmRXRE (Choristoneura fumiferana, UniProt O77240)
Construct: The wild-type D, E, and F domains from spruce budworm Choristoneura fumiferana EcR (“CfEcR-DEF”)
Assay Protocol: 13B3 assay: luciferase reporter gene induction in stable CHO clone 13B3
Assay type: cell-based
Condition Set: 48 h, read-out: Fold Induction Average, 13B3 assay
Entries are grouped by fold induction at 33.3 µM into these classes: lower segment (below 1), middle segment (1 to below 60), upper segment (60 or more)

[Q] State the band of CCc1ccc(C(=O)NN2C(c3ccccc3)=NOC2(C)C)cc1 [RG-120115]
[A] lower segment

Further cases:
[Q] State the band of CCc1ccc(C(=O)NN2C(c3ccc(Cl)cc3)=NOC2(C)C)cc1 [RG-120035]
[A] middle segment

[Q] State the band of COc1ccc(C2=NOC(C)(C)N2NC(=O)c2ccccc2)c(OC)c1 [RG-120096]
[A] lower segment

---

Experimental Target: Bombyx mori EcR (VBE) (Bombyx mori)
Construct: expressed in transfected cells; host or cells: Human HEK-293 cells, retrovirally infected, clone Z3
Assay Protocol: Z3 assay: β-galactosidase reporter gene induction in HEK-293 clone Z3 (CVBE / 6XEcRE LacZ)
Type: cell-based
Condition Set: 33 μM ligand, 48 h, RLU relative to DMSO
Attribute Measured: Fold Induction Average, Z3 assay
Numbers only.

// solved cases for Fold Induction Average, Z3 assay follow
[Q] Can you share its Fold Induction Average, Z3 assay? I mean this molecule: "COc1ccc(C2=NOC(C)(C)N2NC(=O)c2ccco2)c(OC)c1"
[A] 0.8

[Q] Can you share its Fold Induction Average, Z3 assay? I mean this molecule: "CCOC(=O)CCC(=O)NN1C(c2ccccc2)=NOC12CCCC2"
[A] 1.1

[Q] Can you share its Fold Induction Average, Z3 assay? I mean this molecule: "CC1(C)ON=C(c2ccc3c(c2)OCO3)N1NC(=O)COCc1ccccc1"
[A] 0.5

[Q] Can you share its Fold Induction Average, Z3 assay? I mean this molecule: "CC1(C)ON=C(c2ccc3c(c2)OCO3)N1NC(=O)Cc1ccccc1"
[A] 0.6

[Q] Can you share its Fold Induction Average, Z3 assay? I mean this molecule: "CC1(C)ON=C(c2ccc(OC(F)(F)F)cc2)N1NC(=O)Nc1ccccc1"
[A] 0.6

[Q] Can you share its Fold Induction Average, Z3 assay? I mean this molecule: "COc1ccccc1C(=O)NN1C(c2cc(C)cc(C)c2)=NOC1(C)C"
[A] 0.7

[Q] Can you share its Fold Induction Average, Z3 assay? I mean this molecule: "COc1ccccc1C1=NOC(C)(C)N1NC(=O)c1ccco1"
[A] 0.7

[Q] Can you share its Fold Induction Average, Z3 assay? I mean this molecule: "CCOC(=O)CCC(=O)NN1C(c2ccc(Cl)cc2)=NOC1(C)C"
[A] 0.6

[Q] Can you share its Fold Induction Average, Z3 assay? I mean this molecule: "Cc1cc(C)cc(C2=NOC(C)(C)N2NC(=O)c2cccc([N+](=O)[O-])c2)c1"
[A] 1.5

[Q] Can you share its Fold Induction Average, Z3 assay? I mean this molecule: "CC1(C)ON=C(c2ccc3c(c2)OCO3)N1NC(=O)Nc1ccccc1"
[A] 0.9

Count: 6. Required value per item: Fold Induction Average, Z3 assay.
1. Cc1cc(C)cc(C2=NOC3(CCCC3)N2NC(=O)c2cc3ccccc3s2)c1
2. CC1(C)ON=C(c2cccc(C(F)(F)F)c2)N1NC(=O)C(F)(F)C(F)(F)Cl
3. Cc1cccc(C(=O)NN2C(c3cc(C)cc(C)c3)=NOC2(C)C)c1
4. CC1(C)ON=C(c2ccc(OC(F)(F)F)cc2)N1NC(=O)c1ccco1
5. CC1(C)ON=C(c2cccc(C(F)(F)F)c2)N1NC(=O)c1ccccc1
6. CC1(C)ON=C(c2ccc(Cl)cc2)N1NC(=O)c1ccccc1

[A]
1. 59.9
2. 0.6
3. 14.6
4. 0.8
5. 0.8
6. 0.8

---

Tested on: Cabbage Looper
Assay Protocol: Insect toxicity feeding bioassay, CL
Type: in vivo
Condition Set: in vivo
Entries whose Insect Toxicity LC50, CL is below 20 ppm take Yes; entries at or above 20 ppm take No.

[Q] Does the reported Insect Toxicity LC50, CL of CCc1c(OC)cccc1C(=O)NN1C(c2ccccc2)=NOC1(C)CC (centres unmarked) stay below 20 ppm?
[A] No

[Q] Does the reported Insect Toxicity LC50, CL of "CCc1ccc(C(=O)NN2C(c3cc(C)cc(C)c3)=NOC2(C)C)cc1" stay below 20 ppm?
[A] No

Further cases:
[Q] Does the reported Insect Toxicity LC50, CL of CCC1(C)ON=C(c2cc(C)cc(C)c2)N1NC(=O)c1cc2ccccc2s1 (centres unmarked) stay below 20 ppm?
[A] Yes

[Q] Does the reported Insect Toxicity LC50, CL of "CCc1c(OC)cccc1C(=O)NN1C(c2ccccc2)=NOC12CCCC2" stay below 20 ppm?
[A] Yes

---

Experimental Target: Bombyx mori EcR (VBE) (Bombyx mori, UniProt P49881)
Construct: expressed in transfected cells; host or cells: Human HEK-293 cells, retrovirally infected, clone Z3
Sequence (P49881 86-606 limits assumed): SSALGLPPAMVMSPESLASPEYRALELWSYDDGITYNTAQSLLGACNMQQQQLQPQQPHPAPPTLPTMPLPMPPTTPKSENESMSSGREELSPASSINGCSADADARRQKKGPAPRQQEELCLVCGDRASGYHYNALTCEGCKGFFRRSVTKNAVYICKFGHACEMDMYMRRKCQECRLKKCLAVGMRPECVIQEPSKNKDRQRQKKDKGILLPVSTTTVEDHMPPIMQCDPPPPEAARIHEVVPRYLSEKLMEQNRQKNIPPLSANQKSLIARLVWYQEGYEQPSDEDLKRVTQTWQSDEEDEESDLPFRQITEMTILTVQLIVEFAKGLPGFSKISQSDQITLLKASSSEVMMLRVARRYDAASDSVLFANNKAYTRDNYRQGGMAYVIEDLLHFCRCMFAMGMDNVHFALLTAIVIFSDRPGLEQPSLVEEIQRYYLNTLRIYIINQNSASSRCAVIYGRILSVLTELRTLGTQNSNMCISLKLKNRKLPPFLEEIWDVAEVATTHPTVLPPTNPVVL
Sequence (P19793 1-462 partner): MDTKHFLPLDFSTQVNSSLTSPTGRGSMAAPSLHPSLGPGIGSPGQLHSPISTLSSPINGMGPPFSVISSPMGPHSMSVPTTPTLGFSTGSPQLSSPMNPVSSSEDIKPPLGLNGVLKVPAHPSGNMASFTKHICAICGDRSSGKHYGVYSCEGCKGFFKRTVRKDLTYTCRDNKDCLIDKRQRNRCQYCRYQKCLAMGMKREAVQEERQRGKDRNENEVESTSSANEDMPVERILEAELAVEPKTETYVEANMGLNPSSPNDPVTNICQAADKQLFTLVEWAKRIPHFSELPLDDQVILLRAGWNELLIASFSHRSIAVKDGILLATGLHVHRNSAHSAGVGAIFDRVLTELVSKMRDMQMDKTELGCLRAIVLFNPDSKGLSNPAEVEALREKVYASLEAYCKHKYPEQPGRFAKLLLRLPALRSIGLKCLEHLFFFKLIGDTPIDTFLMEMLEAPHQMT
Assay Protocol: Z3 assay: β-galactosidase reporter gene induction in HEK-293 clone Z3 (CVBE / 6XEcRE LacZ)
Format: cell-based
Condition Set: HEK293; 33 μM ligand, 48 h, RLU relative to DMSO; read-out: Fold Induction Average, Z3 assay
Entries are grouped by fold induction at 33 µM into these classes: lo (below 0.6), mid (0.6 to below 4), hi (4 or more)

[Q] State the band of "Cc1cc(C)cc(C2=NOC(C)(C)N2NC(=O)c2ccc(Cl)cc2)c1"
[A] mid

[Q] State the band of "CCc1c(OC)cccc1C(=O)NN1C(c2ccccc2)=NOC12CCOCC2"
[A] lo

[Q] State the band of COc1cccc(C(=O)NN2C(c3cc(C)cc(C)c3)=NOC23CCc2ccccc2C3)c1C (stereo not drawn)
[A] lo

[Q] State the band of "COc1cccc(C(=O)NN2C(c3cc(C)cc(C)c3)=NOC23CCOCC3)c1C"
[A] hi

[Q] State the band of "CCc1c(OC)cccc1C(=O)NN1C(c2ccccc2OC)=NOC1(C)C"
[A] hi

Further cases:
[Q] State the band of "CCc1ccc(C(=O)NN2C(c3ccccc3)=NOC23CCOCC3)cc1"
[A] mid

[Q] State the band of "CCc1ccc(C(=O)NN2C(c3cccc(C(F)(F)F)c3)=NOC2(C)C)cc1"
[A] mid
